# test.system: KCNQ2/3 channels (Homo sapiens, UniProt O43525+O43526)
# protocol.notes: Fluorescence assay using a voltage sensitive dye (fluorimetry)
# experimental.parameters: CHO-K1 cells expressing KCNQ2/3 channels
Below, each entry is listed alongside its reported log10 EC50.
endpoint.name: log10 EC50 (log10 of the value in nM)

compound	log10 EC50
CCn1c(=O)c(C(=O)NCc2ccc(F)cc2)c(C)c2ccc(C(F)(F)F)cc21	2.60
COCCCn1c(=O)c(C(=O)NCc2cccc(F)c2)c(C)c2ccc(C(F)(F)F)cc21	3.00
CCCCn1c(=O)c(C(=O)NCc2cccc(F)c2)c(C)c2ccc(C(F)(F)F)cc21	2.37
Cc1c(C(=O)NCc2ccc(F)cc2)c(=S)n(C)c2cc(C(F)(F)F)ccc12	2.10
CCn1c(=O)c(C(=O)NCc2cccc(F)c2)c(C)c2ccc(C(F)(F)F)cc21	2.58
Cc1c(C(=O)NCc2cccc(F)c2)c(=O)n(C)c2cc(C#N)ccc12	3.10
COCCn1c(=O)c(C(=O)NCc2cccc(F)c2)c(C)c2ccc(C(F)(F)F)cc21	2.93
COCCOCCn1c(=O)c(C(=O)NCc2cccc(F)c2)c(C)c2ccc(C(F)(F)F)cc21	3.31
Cc1c(C(=O)NCc2cccc(F)c2)c(=O)n(CCO)c2cc(C(F)(F)F)ccc12	3.26
Cc1c(C(=O)NCc2cccc(F)c2)c(=O)n(C)c2cc(F)ccc12	3.50
COCCn1c(=O)c(C(=O)NCCCC(C)(C)C)c(C)c2ccc(C(F)(F)F)cc21	2.22
Cc1c(C(=O)NCc2ccc(F)cc2)c(=O)n(C)c2cc(C#N)ccc12	2.92
Cc1c(C(=O)NCc2cccc(F)c2)c(=O)n(C)c2cc(OC(F)(F)F)ccc12	2.59
COCC(C)n1c(=O)c(C(=O)NCc2cccc(F)c2)c(C)c2ccc(C(F)(F)F)cc21 (stereo not drawn)	2.06
Cn1c(=O)c(C(=O)NCc2cccc(F)c2)c(C(F)(F)F)c2ccccc21	3.70
COC(C)Cn1c(=O)c(C(=O)NCc2cccc(F)c2)c(C)c2ccc(C(F)(F)F)cc21 (stereo not drawn)	3.23
Cc1c(C(=O)NCc2cccc(F)c2)c(=O)n(C)c2ccccc12	3.76
COCCn1c(=O)c(C(=O)NCc2ccc(F)cc2)c(C)c2ccc(C(F)(F)F)cc21	2.78
Cc1c(C(=O)NCc2cccc(F)c2)c(=O)n(C(C)C)c2cc(C(F)(F)F)ccc12	1.88
CCC(COC)n1c(=O)c(C(=O)NCc2cccc(F)c2)c(C)c2ccc(C(F)(F)F)cc21 (stereo not drawn)	2.29
COCCn1c(=O)c(C(=O)NCc2cccc(F)c2)c(C)c2ccc(C#N)cc21	3.50
CCCn1c(=O)c(C(=O)NCc2cccc(F)c2)c(C)c2ccc(C(F)(F)F)cc21	2.61
COCCn1c(=O)c(C(=O)NCc2ccc(F)cc2)c(C)c2ccc(C#N)cc21	3.59
COc1c(C(=O)NCc2cccc(F)c2)c(=O)n(C)c2cc(C(F)(F)F)ccc12	2.33
Cc1c(C(=O)NCc2cccc(F)c2)c(=O)n(C)c2cc(C(F)(F)F)ccc12	2.39
Cc1c(C(=O)NCc2cccc(F)c2)c(=S)n(C)c2cc(C(F)(F)F)ccc12	2.09
Cc1c(C(=O)NCCCC(C)(C)C)c(=O)n(C)c2cc(C(F)(F)F)ccc12	1.83
Cc1c(C(=O)NCc2ccc(F)cc2)c(=O)n(C)c2cc(C(F)(F)F)ccc12	2.28
Cc1c(C(=O)NCc2cccc(F)c2)c(=O)n(C)c2cc(Cl)ccc12	2.86
COCC(COC)n1c(=O)c(C(=O)NCc2cccc(F)c2)c(C)c2ccc(C(F)(F)F)cc21	1.90

====

# test.system: KCNQ2/3 channels (Homo sapiens, UniProt O43525+O43526)
# Construct: expressed in transfected cells; host or cells: CHO-K1 cells kept under selection antibiotics
# protocol.notes: Fluorescence assay using a voltage sensitive dye (fluorimetry)
# Type: cell-based
# experimental.parameters: CHO-K1 cells expressing KCNQ2/3 channels; relative to retigabine (RTG) = 100%; read-out: Fluorimetry % efficacy (RTG = 100%)
# maps each entry to its Emax

molecule	test.system	Emax
Cn1c(=O)c(C(=O)NCc2cccc(F)c2)c(C(F)(F)F)c2ccccc21 [Example 42]	KCNQ2/3 channels (Homo sapiens, UniProt O43525+O43526)	103%
Cc1c(C(=O)N(C)c2cccc(F)c2)c(=O)n(CCC(=O)O)c2cc(C(F)(F)F)ccc12 [Example 29]	KCNQ2/3 channels (Homo sapiens, UniProt O43525+O43526)	6%
COC(=O)CCn1c(=O)c(C(=O)N(C)c2cccc(F)c2)c(C)c2ccc(C(F)(F)F)cc21 [Example 27]	KCNQ2/3 channels (Homo sapiens, UniProt O43525+O43526)	22%
Cc1c(C(=O)NCc2cccc(F)c2)c(=O)n(C)c2cc(C(F)(F)F)ccc12 [Example 1]	KCNQ2/3 channels (Homo sapiens, UniProt O43525+O43526)	177%
Cc1c(C(=O)NCc2cccc(F)c2)c(=O)n(C)c2cc(F)ccc12 [Example 34]	KCNQ2/3 channels (Homo sapiens, UniProt O43525+O43526)	105%
Cc1c(C(=O)NCc2ccc(F)cc2)c(=O)n(C)c2cc(C#N)ccc12 [Example 21]	KCNQ2/3 channels (Homo sapiens, UniProt O43525+O43526)	136%
COCCCn1c(=O)c(C(=O)NCc2cccc(F)c2)c(C)c2ccc(C(F)(F)F)cc21 [Example 14]	KCNQ2/3 channels (Homo sapiens, UniProt O43525+O43526)	61%
Cc1c(C(=O)NCc2cccc(F)c2)c(=O)n(CCC(C)C)c2cc(C(F)(F)F)ccc12 [Example 12]	KCNQ2/3 channels (Homo sapiens, UniProt O43525+O43526)	33%
Cc1c(C(=O)NCc2ccc(F)cc2)c(=O)n(C)c2cc(C(F)(F)F)ccc12 [Example 6]	KCNQ2/3 channels (Homo sapiens, UniProt O43525+O43526)	169%
COCCn1c(=O)c(C(=O)NCCCC(C)(C)C)c(C)c2ccc(C(F)(F)F)cc21 [Example 24]	KCNQ2/3 channels (Homo sapiens, UniProt O43525+O43526)	231%
CCC(COC)n1c(=O)c(C(=O)NCc2cccc(F)c2)c(C)c2ccc(C(F)(F)F)cc21 (centres unmarked) [Example 30]	KCNQ2/3 channels (Homo sapiens, UniProt O43525+O43526)	133%
COCCn1c(=O)c(C(=O)NCc2cccc(F)c2)c(C)c2ccc(C#N)cc21 [Example 22]	KCNQ2/3 channels (Homo sapiens, UniProt O43525+O43526)	102%
COCCn1c(=O)c(C(=O)NCc2cccc(F)c2)c(C)c2ccccc21 [Example 10]	KCNQ2/3 channels (Homo sapiens, UniProt O43525+O43526)	22%
CCOCCn1c(=O)c(C(=O)NCc2cccc(F)c2)c(C)c2ccc(C(F)(F)F)cc21 [Example 39]	KCNQ2/3 channels (Homo sapiens, UniProt O43525+O43526)	43%

====

# test.system: KCNQ2/3 channels (Homo sapiens, UniProt O43525+O43526)
# Construct: expressed in transfected cells; host or cells: CHO-K1 cells kept under selection antibiotics
# protocol.notes: Fluorescence assay using a voltage sensitive dye (fluorimetry)
# Type: cell-based
# experimental.parameters: CHO-K1 cells expressing KCNQ2/3 channels; relative to retigabine (RTG) = 100%; read-out: Fluorimetry % efficacy (RTG = 100%)
Entries and their Emax values follow.
endpoint.name: Emax

molecule	endpoint.name	recorded.measurement
Cc1c(C(=O)NCc2cccc(F)c2)c(=O)n(CCO)c2cc(C(F)(F)F)ccc12 [Example 38]	Emax	160%
Cc1c(C(=O)NCc2ccc(F)cc2)c(=S)n(C)c2cc(C(F)(F)F)ccc12 [Example 36]	Emax	99%
COCCOCCn1c(=O)c(C(=O)NCc2cccc(F)c2)c(C)c2ccc(C(F)(F)F)cc21 [Example 15]	Emax	78%
Cc1c(C(=O)NCc2cccc(F)c2)c(=O)n(CCCC(C)C)c2cc(C(F)(F)F)ccc12 [Example 13]	Emax	3%
Cc1c(C(=O)NCc2cccc(F)c2)c(=S)n(C)c2cc(C(F)(F)F)ccc12 [Example 3]	Emax	101%
Cc1c(C(=O)NCc2cccc(F)c2)c(=O)n(C2CCOCC2)c2cc(C(F)(F)F)ccc12 [Example 44]	Emax	36%
Cc1c(C(=O)NCc2cccc(F)c2)c(=O)n(C)c2ccccc12 [Example 9]	Emax	63%
CCCCCn1c(=O)c(C(=O)NCc2cccc(F)c2)c(C)c2ccc(C(F)(F)F)cc21 [Example 41]	Emax	18%
Cc1c(C(=O)NCc2cccc(F)c2)c(=O)n(C)c2cc(C#N)ccc12 [Example 20]	Emax	143%
COC(C)Cn1c(=O)c(C(=O)NCc2cccc(F)c2)c(C)c2ccc(C(F)(F)F)cc21 (centres unmarked) [Example 43]	Emax	100%
COCC(C)n1c(=O)c(C(=O)NCc2cccc(F)c2)c(C)c2ccc(C(F)(F)F)cc21 (centres unmarked) [Example 35]	Emax	118%
Cc1c(C(=O)NCCCC(C)(C)C)c(=O)n(C)c2cc(C(F)(F)F)ccc12 [Example 25]	Emax	258%
CCC(Cn1c(=O)c(C(=O)NCc2cccc(F)c2)c(C)c2ccc(C(F)(F)F)cc21)OC (centres unmarked) [Example 32]	Emax	26%
COCCn1c(=O)c(C(=O)NCc2cccc(F)c2)c(C)c2ccc(C(F)(F)F)cc21 [Example 4]	Emax	195%
CCn1c(=O)c(C(=O)NCc2cccc(F)c2)c(C)c2ccc(C(F)(F)F)cc21 [Example 5]	Emax	173%
CCn1c(=O)c(C(=O)NCc2ccc(F)cc2)c(C)c2ccc(C(F)(F)F)cc21 [Example 8]	Emax	175%
COCCn1c(=O)c(C(=O)NCc2ccc(F)cc2)c(C)c2ccc(C(F)(F)F)cc21 [Example 7]	Emax	146%
